B1: TPR t1 (parent)
chain: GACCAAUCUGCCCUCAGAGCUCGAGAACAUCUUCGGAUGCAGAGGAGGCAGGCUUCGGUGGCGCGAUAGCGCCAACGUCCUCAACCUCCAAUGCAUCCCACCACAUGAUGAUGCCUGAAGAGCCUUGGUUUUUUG

Variants of: B1
Experiment: polymerase ribozyme fitness, log enrichment relative to wild type (log ratio); higher = more active; in vitro selection for triplet polymerase activity
Rule: rule met for polymerase ribozyme fitness (log ratio) not less than -4, rule not met for anything less.

[
  {
    "mutations": "U9G A46U U55G A103C",
    "assigned_class": "rule not met"
  },
  {
    "mutations": "A18U C20U A50C G69U",
    "assigned_class": "rule met"
  },
  {
    "mutations": "G10A A37U G45U C80A G110C",
    "assigned_class": "rule not met"
  },
  {
    "mutations": "C3A U7G U32C G60U G93C A111C",
    "assigned_class": "rule met"
  }
]

Identify whether the reported polymerase ribozyme fitness (log ratio) of the following variant is -4 or greater: A41C C64A A90G
rule not met

Identify whether the reported polymerase ribozyme fitness (log ratio) of the following variant is -4 or greater: A43C U78C C80A C89U
rule not met

Identify whether the reported polymerase ribozyme fitness (log ratio) of the following variant is -4 or greater: C4U C11A
rule met

Each recorded value in this set is attributed to the RNAGym collection of RNA variant scans (doi:10.1073/pnas.2313332121).
